# System: T-47D breast
# protocol details: NCI tumour cell line growth inhibition, 48 h
measurement name: TGI

Example molecules with recorded TGI:
{"molecule": "CC(=O)NC1C(OCc2ccccc2)OC(CO)C(O)C1OCC(=O)N[C@@H](C)C(=O)N[C@H](CCC(=O)NCCCNc1ccc([N+](=O)[O-])c2[nH]c3ccccc3c(=O)c12)C(N)=O (stereo not given in full)", "target under test": "T-47D breast", "readout value": "> 100 µM"}
{"molecule": "Clc1cc2nnn(C3CCCO3)c2cc1Cl (stereo not given)", "target under test": "T-47D breast", "readout value": "> 100 µM"}
{"molecule": "Nc1ccn(C2OC(C(OC3OC(CO)C(O)C(N)C3O)C(O)C(O)C(O)C(O)CO)C(N)C(O)C2O)c(=O)n1 (stereo not given)", "target under test": "T-47D breast", "readout value": "> 100 µM"}

# get_value(readout= TGI, system= T-47D breast) for Cc1c(Cl)c(C)c(Cc2c(C)c(Cl)c(C)c(Cl)c2O)c(O)c1Cl 8.76 µM

Try this molecule next: NC(=O)Oc1ccccc1 > 100 µM
